From: patent US20260274835A1

measurement.target: WT hA3ARs (Homo sapiens, UniProt P0DMS8)
Construct: The full-length mouse (as previously described^25), human (purchased from the cDNA Resource Center), and human/mouse chimeric
Sequence (P0DMS8 whole entry): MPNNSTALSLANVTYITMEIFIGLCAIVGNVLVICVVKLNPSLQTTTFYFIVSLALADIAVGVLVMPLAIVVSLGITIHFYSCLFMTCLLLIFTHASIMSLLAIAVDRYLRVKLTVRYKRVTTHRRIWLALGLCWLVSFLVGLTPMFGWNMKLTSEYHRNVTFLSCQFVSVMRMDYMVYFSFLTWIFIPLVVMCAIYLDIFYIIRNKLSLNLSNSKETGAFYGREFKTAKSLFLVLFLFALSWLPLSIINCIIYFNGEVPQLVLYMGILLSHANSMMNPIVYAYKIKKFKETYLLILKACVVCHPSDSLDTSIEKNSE
test.method.notes: [35S]GTPγS binding assay, Cl-IB-MECA concentration-response with modulator, HEK293 cell membranes
Format: biochemical
experimental.parameters: PAM derivative 1.0 μM; [35S]GTPγS binding induced by Cl-IB-MECA; WT hA3ARs; mean ± SEM, n = 3; Table 3
assay.readout: Emax (%)

INSERT INTO assay_data (compound, measurement_target, reported_value) VALUES
  ('Clc1ccc(Nc2nc3ccccc3c3sc(C4CCCCC4)nc23)cc1Cl [42 (RK005-79-1, BS1001)]', 'WT hA3ARs (Homo sapiens, UniProt P0DMS8)', 192.6),
  ('Clc1ccc(Nc2nc3ccccc3c3oc(C4CCCCC4)nc23)cc1Cl [41 (RK005-84-1, BS1002)]', 'WT hA3ARs (Homo sapiens, UniProt P0DMS8)', 149.9),
  ('Clc1ccc(Sc2nc3ccccc3c3[nH]c(C4CCCCC4)nc23)cc1Cl [47 (RK007-2-1, BS1005)]', 'WT hA3ARs (Homo sapiens, UniProt P0DMS8)', 137.6),
  ('Clc1ccc(Oc2nc3ccccc3c3[nH]c(C4CCCCC4)nc23)cc1Cl [46 (RK007-4-1, BS1006)]', 'WT hA3ARs (Homo sapiens, UniProt P0DMS8)', 150.6),
  ('CN(c1ccc(Cl)c(Cl)c1)c1nc2ccccc2c2[nH]c(C3CCCCC3)nc12 [45 (RK006-100-1, BS1007)]', 'WT hA3ARs (Homo sapiens, UniProt P0DMS8)', 127.0);

(1) Cn1c(C2CCCCC2)nc2c(Nc3ccc(Cl)c(Cl)c3)nc3ccccc3c21
(2) OCCn1c(C2CCCCC2)nc2c(Nc3ccc(Cl)c(Cl)c3)nc3ccccc3c21
Incoming: Short answer wanted: higher Emax (%), 1 or 2 ? Answer by stating the label of the chosen item.
Outgoing: 1
